Dear all, this message contains IC50 results, target or system Alkaline phosphatase, placental type (Homo sapiens).

Example entries and their recorded answers appear below.
{"molecule": "CN(C)c1ccc(/C=C/C(=O)c2cccc(Br)c2)cc1", "IC50": "35.5 µM"}
{"molecule": "Cc1[nH]c2ccccc2c1/C=C/c1cc[n+](C)cc1", "IC50": "29.1 µM"}
{"molecule": "COc1ccc(-n2nnnc2SCC(=O)c2ccc(O)c(O)c2)cc1", "IC50": "1.13 µM"}

Exam item: I would be grateful if you could share the reported IC50 for O=C(CCCn1c(SCC(=O)c2ccc(O)c(O)c2)nc2ccccc2c1=O)NCC1CCCO1 (stereo not drawn) .
Marked response: 3.45 µM

Exam item: I would be grateful if you could share the reported IC50 for COC(=O)c1ccc2c(c1)C(C)(C)C(/C=C/c1ccc(O)cc1)=[N+]2C .
Marked response: 10.8 µM

Exam item: I would be grateful if you could share the reported IC50 for COc1cccc(-c2nnc3n2N=C(c2cccc(Br)c2)CS3)c1 .
Marked response: 76.1 µM
